study system: T1, human C1s (human, UniProt P09871 16-688)
T1 construct: also called hC1s; serum-derived human C1s (CompTech)
T1 sequence: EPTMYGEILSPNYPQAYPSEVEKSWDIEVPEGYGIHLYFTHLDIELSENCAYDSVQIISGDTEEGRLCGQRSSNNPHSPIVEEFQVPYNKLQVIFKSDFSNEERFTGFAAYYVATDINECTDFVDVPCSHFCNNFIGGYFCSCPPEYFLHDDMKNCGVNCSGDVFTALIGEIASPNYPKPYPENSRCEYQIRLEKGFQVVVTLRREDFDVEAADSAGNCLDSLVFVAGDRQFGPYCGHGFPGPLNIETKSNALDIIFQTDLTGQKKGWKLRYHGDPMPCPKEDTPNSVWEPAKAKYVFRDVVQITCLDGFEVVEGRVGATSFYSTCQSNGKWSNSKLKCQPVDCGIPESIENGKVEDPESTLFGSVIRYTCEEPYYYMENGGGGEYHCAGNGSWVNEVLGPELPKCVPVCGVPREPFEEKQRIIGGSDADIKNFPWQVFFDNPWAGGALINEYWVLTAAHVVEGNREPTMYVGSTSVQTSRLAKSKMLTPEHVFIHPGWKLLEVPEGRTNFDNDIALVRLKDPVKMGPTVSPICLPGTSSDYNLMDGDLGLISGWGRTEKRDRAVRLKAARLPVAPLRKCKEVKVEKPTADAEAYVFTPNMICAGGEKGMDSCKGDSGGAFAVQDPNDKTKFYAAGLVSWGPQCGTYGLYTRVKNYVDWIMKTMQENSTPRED
assay protocol: SPR, Ab captured; pH 5.8, 3 uM Ca
Provide the reported koff of each item.
Write down the value, and be sure its unit follows.

Q: Give its koff value. Item: C1_IPN92H0033-SG4GK/IPN93L0031-SK1 (antibody, human IgG4 S228P, kappa, name in Kabat numbering, V domains shown, also called IPN92H0033/IPN93L0031) VH: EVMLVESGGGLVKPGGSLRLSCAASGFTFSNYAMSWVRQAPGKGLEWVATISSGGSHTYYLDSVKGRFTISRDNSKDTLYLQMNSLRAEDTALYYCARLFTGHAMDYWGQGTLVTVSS VL: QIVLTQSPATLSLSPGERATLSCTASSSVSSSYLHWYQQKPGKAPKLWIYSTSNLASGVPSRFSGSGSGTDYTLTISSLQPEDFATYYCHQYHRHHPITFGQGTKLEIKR
A: 0.00934 s⁻¹

Q: Give its koff value. Item: C1_IPN92H0038-SG4GK/IPN93L0029-SK1 (antibody, human IgG4 S228P, kappa, name in Kabat numbering, V domains shown, also called IPN92H0038/IPN93L0029) VH: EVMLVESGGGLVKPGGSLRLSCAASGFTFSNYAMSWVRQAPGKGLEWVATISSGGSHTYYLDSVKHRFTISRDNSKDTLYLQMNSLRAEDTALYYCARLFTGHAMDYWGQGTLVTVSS VL: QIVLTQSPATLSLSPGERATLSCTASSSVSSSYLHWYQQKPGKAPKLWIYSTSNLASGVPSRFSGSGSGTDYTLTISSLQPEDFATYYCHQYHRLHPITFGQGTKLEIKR
A: 0.00522 s⁻¹

Q: Give its koff value. Item: C1_IPN92H0026-SG4GK/IPN93L0031-SK1 (antibody, human IgG4 S228P, kappa, name in Kabat numbering, V domains shown, also called IPN92H0026/IPN93L0031) VH: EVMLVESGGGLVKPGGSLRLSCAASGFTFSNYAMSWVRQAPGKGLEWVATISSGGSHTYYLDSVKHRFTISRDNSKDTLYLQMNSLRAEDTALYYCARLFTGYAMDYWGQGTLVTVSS VL: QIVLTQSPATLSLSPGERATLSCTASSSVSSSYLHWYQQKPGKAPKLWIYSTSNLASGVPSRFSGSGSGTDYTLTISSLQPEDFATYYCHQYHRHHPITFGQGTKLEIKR
A: 0.00133 s⁻¹

Q: Give its koff value. Item: C1_IPN009VH2-SG4GK/IPN93L0030-SK1 (antibody, human IgG4 S228P, kappa, name in Kabat numbering, V domains shown, also called IPN009VH2/IPN93L0030) VH: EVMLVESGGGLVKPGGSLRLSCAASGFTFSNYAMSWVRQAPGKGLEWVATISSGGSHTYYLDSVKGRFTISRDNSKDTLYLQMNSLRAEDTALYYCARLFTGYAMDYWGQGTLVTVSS VL: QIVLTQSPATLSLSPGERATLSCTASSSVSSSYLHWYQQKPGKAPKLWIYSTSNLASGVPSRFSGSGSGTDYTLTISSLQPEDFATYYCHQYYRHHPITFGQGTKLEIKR
A: 0.00577 s⁻¹

Q: Give its koff value. Item: C1_IPN92H0026-SG4GK/IPN93L0023-SK1 (antibody, human IgG4 S228P, kappa, name in Kabat numbering, V domains shown, also called IPN92H0026/IPN93L0023) VH: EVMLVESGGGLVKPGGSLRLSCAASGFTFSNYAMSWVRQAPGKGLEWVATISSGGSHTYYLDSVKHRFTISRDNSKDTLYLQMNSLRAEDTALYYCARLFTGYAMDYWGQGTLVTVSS VL: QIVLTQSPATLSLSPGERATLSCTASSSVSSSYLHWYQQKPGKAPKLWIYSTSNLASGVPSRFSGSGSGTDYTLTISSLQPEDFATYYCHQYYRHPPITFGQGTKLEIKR
A: 0.0619 s⁻¹

Q: Give its koff value. Item: C1_IPN92H0038-SG4GK/IPN93L0031-SK1 (antibody, human IgG4 S228P, kappa, name in Kabat numbering, V domains shown, also called IPN92H0038/IPN93L0031) VH: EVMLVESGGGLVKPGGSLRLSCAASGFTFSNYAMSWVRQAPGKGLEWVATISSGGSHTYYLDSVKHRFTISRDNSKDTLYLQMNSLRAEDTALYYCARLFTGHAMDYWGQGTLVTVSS VL: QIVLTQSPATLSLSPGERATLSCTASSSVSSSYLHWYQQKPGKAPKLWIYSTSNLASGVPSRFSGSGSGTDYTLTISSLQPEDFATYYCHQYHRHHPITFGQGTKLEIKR
A: 0.00476 s⁻¹

Q: Give its koff value. Item: C1_IPN92H0038-SG4GK/IPN93L0028-SK1 (antibody, human IgG4 S228P, kappa, name in Kabat numbering, V domains shown, also called IPN92H0038/IPN93L0028) VH: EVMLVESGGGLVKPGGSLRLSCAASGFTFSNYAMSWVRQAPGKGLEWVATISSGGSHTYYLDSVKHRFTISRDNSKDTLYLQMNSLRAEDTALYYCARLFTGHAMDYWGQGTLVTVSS VL: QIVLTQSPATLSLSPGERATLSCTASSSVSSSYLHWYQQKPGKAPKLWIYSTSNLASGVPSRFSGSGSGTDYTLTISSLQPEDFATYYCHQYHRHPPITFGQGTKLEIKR
A: 0.0174 s⁻¹

Q: Give its koff value. Item: C1_IPN009VH2-SG4GK/IPN93L0031-SK1 (antibody, human IgG4 S228P, kappa, name in Kabat numbering, V domains shown, also called IPN009VH2/IPN93L0031) VH: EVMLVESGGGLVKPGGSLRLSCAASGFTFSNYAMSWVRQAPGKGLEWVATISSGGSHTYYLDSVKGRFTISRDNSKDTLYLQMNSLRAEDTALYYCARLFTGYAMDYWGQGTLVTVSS VL: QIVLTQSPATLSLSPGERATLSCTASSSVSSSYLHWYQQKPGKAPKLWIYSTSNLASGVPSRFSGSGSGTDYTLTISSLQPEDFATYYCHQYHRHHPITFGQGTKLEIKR
A: 0.00352 s⁻¹

Q: Give its koff value. Item: C1_IPN92H0033-SG4GK/IPN93L0028-SK1 (antibody, human IgG4 S228P, kappa, name in Kabat numbering, V domains shown, also called IPN92H0033/IPN93L0028) VH: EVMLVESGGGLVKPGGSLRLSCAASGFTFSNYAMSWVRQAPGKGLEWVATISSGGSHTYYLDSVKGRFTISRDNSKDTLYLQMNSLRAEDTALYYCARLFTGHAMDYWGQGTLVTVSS VL: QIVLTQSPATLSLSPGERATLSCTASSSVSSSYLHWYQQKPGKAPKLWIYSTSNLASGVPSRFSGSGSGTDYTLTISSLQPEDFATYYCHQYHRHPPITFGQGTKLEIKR
A: 0.0056 s⁻¹

Q: Give its koff value. Item: C1_IPN92H0026-SG4GK/IPN93L0021-SK1 (antibody, human IgG4 S228P, kappa, name in Kabat numbering, V domains shown, also called IPN92H0026/IPN93L0021) VH: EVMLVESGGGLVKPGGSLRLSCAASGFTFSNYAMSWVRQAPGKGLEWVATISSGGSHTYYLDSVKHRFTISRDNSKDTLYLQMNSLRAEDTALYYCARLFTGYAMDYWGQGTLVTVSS VL: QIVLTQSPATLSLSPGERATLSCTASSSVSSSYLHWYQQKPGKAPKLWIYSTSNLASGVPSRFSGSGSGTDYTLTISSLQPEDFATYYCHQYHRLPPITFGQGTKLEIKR
A: 0.17 s⁻¹

Ref: patent US20210032365A1
